test system: P12-Ichikawa; assay: AUC of viability dose-response curve (% viability x log10 dose units); higher = less sensitive; conditions: RPMI 5 mM glucose + 10% dialyzed FBS; 48 h
Friendly reminder: AUC of viability dose-response curve below 400 is 1, at or above is 0.

- COMPOUND: "CC(C)(N)C(=O)N[C@H](COCc1ccccc1)C(=O)N1CCC2(CC1)CN([S+](C)(=O)[O-])c1ccccc12"
  CAT: 0
- COMPOUND: "Nc1cccc([S+](=O)([O-])N2CCCN([S+](=O)([O-])c3ccc4c(c3)OCCO4)CC2)c1"
  CAT: 0
- COMPOUND: "c1ccc(CNc2nc(NCc3ccccc3)c3ccccc3n2)cc1"
  CAT: 0
- COMPOUND: "CCN(CC)CCNC(=O)c1c(C)[nH]c(/C=C2\\C(=O)Nc3ccc(F)cc32)c1C"
  CAT: 1
- COMPOUND: "CC/C=C\\C[C@H]1C(=O)CC[C@@H]1CC(=O)OC"
  CAT: 0
- COMPOUND: "CC1(COc2ccc3c(c2)ncn3-c2ccc3cccc(N4CCC(N)CC4)c3n2)COC1"
  CAT: 0
- COMPOUND: "CCNC(=O)CCC/C=C\\C[C@@H]1[C@@H](/C=C/C(O)CCc2ccccc2)[C@@H](O)C[C@@H]1O (stereo partly specified)"
  CAT: 0
- COMPOUND: "CCCCc1ccc2[nH]c(NC(=O)OC)nc2c1"
  CAT: 1
- COMPOUND: "CC1(C)CC\\C2=C(/O1)C3=C(C=CC=C3)C(=O)C2=O"
  CAT: 0
- COMPOUND: "COc1cc2nc(N3CCN(C(=O)C4COc5ccccc5O4)CC3)nc(N)c2cc1OC (stereo unspecified)"
  CAT: 0
